- Assay overview: in vitro
- Assay type: in vitro ADME
- Condition notes: pig, PAMPA; 4 h, pH 7.4, 25 °C; mean ± SD of quadruple experiments; read-out: PAMPA-BBB permeability Pe

- Molecule: "Cc1c(CCO)c(CO)cc2c1C(=O)[C@@H](C)C2"
  Papp at 4 h, 25 µg/mL, nm/s: 79.2
- Molecule: "Cc1cc2c(c(C)c1CCO)C(=O)[C@H](C)C2"
  Papp at 4 h, 25 µg/mL, nm/s: 603
- Molecule: "Cc1cc2c(c(C)c1CCO[C@@H]1O[C@H](CO)[C@@H](O)[C@H](O)[C@H]1O)C(=O)[C@@H](C)[C@H]2O [(2S,3R)-Pteroside C, (2S,3R)-pteroside C]"
  Papp at 4 h, 25 µg/mL, nm/s: 2.9
- Molecule: "Cc1cc2c(c(C)c1CCO)C(=O)C(C)(COC1OC(CO)C(O)C(O)C1O)C2 [(2S)-Pteroside A2, (2S)-pteroside A2]"
  Papp at 4 h, 25 µg/mL, nm/s: 5.4
- Molecule: "Cc1cc2c(c(C)c1CCOC1OC(CO)C(O)C(O)C1O)C(=O)C(C)C2 [(2R)-Pteroside B, (2R)-pteroside B]"
  Papp at 4 h, 25 µg/mL, nm/s: 4.8
- Molecule: "Cc1cc2c(c(C)c1CCO[C@@H]1O[C@H](CO)[C@@H](O)[C@H](O)[C@H]1O)C(=O)C(C)(C)C2 [Pteroside Z, pteroside Z]"
  Papp at 4 h, 25 µg/mL, nm/s: 6.1
- Molecule: "Cc1cc2c(c(C)c1CCO)C(=O)[C@](C)(CO)C2"
  Papp at 4 h, 25 µg/mL, nm/s: 62.6
